Target: CDK12 (aa686-1082)/Cyclin K complex (Homo sapiens)
Construct: CDK12 (aa686-1082)/Cyclin K complex
Experiment: CDK12 inhibition assay (Caliper/LabChip EZ Reader kinase assay)
Type: biochemical
Conditions: Table 1; CDK12 (aa686-1082)/Cyclin K 50 nM, ATP 2 mM, 3 hr at 27° C.; listed as 114
pIC50: −log10 of the molar value.

structure.string: O=C(O)c1ccc2c(-c3nc(N[C@H]4CCCNC4)ncc3C(F)(F)F)c[nH]c2c1
pIC50: 5.30 to 6.70

* * *

Target: CDK2/Cyclin E1 complex (Homo sapiens)
Test: CDK2 inhibition assay (Caliper/LabChip EZ Reader kinase assay)
Type: biochemical
Conditions: Table 1; CDK2/Cyclin E1 0.5 nM, ATP 2 mM, 35 min at 27° C.

compound: C[C@]1(O)CCN(C(=O)c2ccc3c(-c4nc(N[C@H]5CCCNC5)ncc4C(F)(F)F)c[nH]c3c2)C1
IC50: > 5 µM
--
compound: COC(C)c1cnc(N[C@H]2CCCNC2)nc1-c1c[nH]c2ccccc12 (stereo partly shown)
IC50: > 5 µM
--
compound: CC1(C)CNC[C@@H](Nc2ncc(C(F)(F)F)c(-c3c[nH]c4cc(S(C)(=O)=O)ccc34)n2)C1
IC50: 0.2 to 5 µM
--
compound: FCCc1cnc(N[C@H]2CCCNC2)nc1-c1c[nH]c2ccccc12
IC50: > 5 µM
--
compound: CNC(=O)C1CNCC(Nc2ncc(C(F)(F)F)c(-c3c[nH]c4ccccc34)n2)C1 (single isomer, unassigned) [Compound 252]
IC50: 0.2 to 5 µM
--
compound: FC(F)(F)c1cnc(N[C@H]2CCCNC2)nc1-c1c[nH]c2cc(N3CCCC3)ccc12
IC50: > 5 µM
--
compound: O=C(C1CCC(Nc2ncc(C(F)(F)F)c(-c3c[nH]c4ccccc34)n2)CN1)N1CCC(O)C1 (mixture of isomers) [Compound 244]
IC50: 0.2 to 5 µM

* * *

Target: CDK12 (aa686-1082)/Cyclin K complex (Homo sapiens, UniProt Q9NYV4)
Construct: CDK12 (aa686-1082)/Cyclin K complex
Sequence (Q9NYV4 686-1082, species assumed): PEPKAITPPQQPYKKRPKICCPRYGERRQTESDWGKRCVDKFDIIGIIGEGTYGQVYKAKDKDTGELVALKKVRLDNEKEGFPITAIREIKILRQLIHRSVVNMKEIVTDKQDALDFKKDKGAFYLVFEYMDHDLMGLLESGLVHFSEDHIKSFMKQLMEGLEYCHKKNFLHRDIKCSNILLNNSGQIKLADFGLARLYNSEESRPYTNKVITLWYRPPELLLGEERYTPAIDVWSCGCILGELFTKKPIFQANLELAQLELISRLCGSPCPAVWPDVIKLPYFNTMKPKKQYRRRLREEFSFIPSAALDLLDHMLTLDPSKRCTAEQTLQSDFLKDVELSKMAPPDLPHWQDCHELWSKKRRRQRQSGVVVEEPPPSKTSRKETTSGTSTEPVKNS
Sequence (O75909 whole entry partner, species assumed, the tested form may be a part): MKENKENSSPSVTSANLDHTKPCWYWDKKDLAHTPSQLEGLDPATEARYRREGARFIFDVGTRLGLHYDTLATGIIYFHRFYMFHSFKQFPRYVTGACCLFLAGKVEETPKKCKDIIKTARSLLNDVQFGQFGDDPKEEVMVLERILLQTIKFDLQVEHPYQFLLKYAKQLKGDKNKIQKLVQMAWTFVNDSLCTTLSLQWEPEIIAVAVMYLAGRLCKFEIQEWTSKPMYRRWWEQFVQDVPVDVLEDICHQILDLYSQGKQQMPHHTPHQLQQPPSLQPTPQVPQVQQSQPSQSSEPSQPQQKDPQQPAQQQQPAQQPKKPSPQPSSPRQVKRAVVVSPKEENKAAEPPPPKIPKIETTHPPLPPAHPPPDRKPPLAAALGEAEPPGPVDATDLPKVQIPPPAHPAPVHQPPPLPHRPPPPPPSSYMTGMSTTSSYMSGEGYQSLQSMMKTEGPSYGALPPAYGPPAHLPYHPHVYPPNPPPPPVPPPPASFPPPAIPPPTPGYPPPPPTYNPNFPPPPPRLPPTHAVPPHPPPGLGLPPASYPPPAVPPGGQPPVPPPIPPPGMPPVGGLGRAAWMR
Experiment: CDK12 inhibition assay (Caliper/LabChip EZ Reader kinase assay)
Type: biochemical
Settings: Table 1; CDK12 (aa686-1082)/Cyclin K 50 nM, ATP 2 mM, 3 hr at 27° C.; listed as 129
pIC50: −log10 of the molar value.

compound: CCN1C[C@@H](Nc2ncc(C(F)(F)F)c(-c3c[nH]c4cc(S(C)(=O)=O)ccc34)n2)CC(C)(C)C1 [Compound 369]
pIC50: 5.30 to 6.70

* * *

Biological target: CDK2/Cyclin E1 complex (Homo sapiens)
Experiment: CDK2 inhibition assay (Caliper/LabChip EZ Reader kinase assay)
Type: biochemical
Details: Table 1; CDK2/Cyclin E1 0.5 nM, ATP 2 mM, 35 min at 27° C.; listed as 114
Method: Compounds of the invention were assayed for inhibition of CDK7, CDK9, CDK12, and CDK2 activity at Biortus Biosciences (Jiangyin, Jiangsu Province, P.R. of China) using kinase assays for each CDK developed with a Caliper/LabChip EZ Reader (Perkin Elmer, Waltham, MA). […]

structure.string: O=C(O)c1ccc2c(-c3nc(N[C@H]4CCCNC4)ncc3C(F)(F)F)c[nH]c2c1
IC50: 200 to 5000 nM
